All figures here come from the RNAGym collection of RNA variant scans (doi:10.7554/elife.90254).

B1: LINE1-full (parent)
chain: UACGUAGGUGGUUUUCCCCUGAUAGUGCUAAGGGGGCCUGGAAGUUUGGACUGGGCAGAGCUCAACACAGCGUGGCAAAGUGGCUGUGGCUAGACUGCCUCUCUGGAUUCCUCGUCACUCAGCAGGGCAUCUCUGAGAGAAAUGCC

- Variants of: B1
- assay.summary: self-cleavage, relative activity (ratio to wild type); higher = more cleavage; in vitro, sequencing; the parent is a self-cleaving ribozyme
Decide by self-cleavage: equal to or exceeding 2 means satisfied, less means not satisfied.

I'd appreciate it if you could say whether G82A A141G has self-cleavage at least equal to 2.
not satisfied

Does the reported self-cleavage for A59G A117U fall at or above the 2 mark?
not satisfied

hey, is self-cleavage for this one >= 2? A79G U134C
not satisfied

Determine whether this variant has self-cleavage no lower than 2: U29C A65U
not satisfied

Form field: self-cleavage at least 2? Entry: C76U U100C
satisfied

Can A78C A117G be said to have self-cleavage at or above 2?
satisfied

Entry A57G U112A : is its self-cleavage no less than 2?
not satisfied

Assess whether reported self-cleavage for U45C G125C sits at 2 or higher.
not satisfied

Record A79G U112A ; criterion: self-cleavage no lower than 2. Met?
not satisfied

Assess whether reported self-cleavage for A64U A79G sits at 2 or higher.
not satisfied
